Values compiled from PubChem BioAssay (NCI).

System: KM12 colon
protocol-notes: NCI tumour cell line growth inhibition, 48 h
property-name: GI50

Some compounds with recorded GI50:
compound=O=Cc1c[nH]c2ccc(-c3csc4ccccc34)cc12 property_name=GI50 obs_value="3.39 µM"
compound="COc1ccc(C2=NNC(c3cc(Cc4ccc(O)c(C5CC(c6ccc(OC)cc6)=NN5)c4)ccc3O)C2)cc1 (stereo not drawn)" property_name=GI50 obs_value="22.6 µM"

Moving on to the next compound.
Tell me its GI50 on KM12 colon: `O=c1c(-c2ccc3c(c2)OCO3)coc2c(CO)c(O)ccc12`
3.24 µM

###

Test system: SW-620 colon
protocol-notes: NCI tumour cell line growth inhibition, 48 h; in the data active = GI50 below about 0.43 µM; inactive = the rest
Give one outcome, nothing more. List: active, inactive

// below: answered molecules
molecule=CCOC(=O)C1=C(C)NC(C)=C(C(=O)OCC)C1c1cc(Br)c(O)c(OC)c1 assigned_category=inactive
molecule=Cc1cc(Br)c2nsnc2c1[N+](=O)[O-] assigned_category=inactive
molecule=COc1ccc(-c2nnc(Nc3nc(O)c(C4=c5cc(OC(F)(F)F)ccc5=NC4=O)s3)o2)cc1 assigned_category=inactive

In this assay, the call recorded for `Oc1[nH]c2ccc(Cl)cc2c1/C=c1/ccc2c(c1)N=C(c1ccc(C(F)(F)F)cc1)N=2` was what?
inactive

For this molecule, state the assay outcome: `C=C1C(=O)O[C@H]2[C@H]1CC/C(COC(=O)c1cccc3ccccc13)=C\CC[C@@]1(C)O[C@@H]21`
inactive

What classification did `C/C(=C\CCc1ccsc1)CC/C=C(\C)CCCN1CCN(CCO)CC1` end up with in this test?
inactive

What outcome does the record of this test show for `COc1cc(-c2nccc3[nH]c(-c4cccc5[nH]ccc45)nc23)cc(OC)c1OC` ?
active

Hi, sorry to bother you, what did the test record for CC(N)CN.CC(N)CN.[Cl-].[O]=[Os+2]=[O] (stereo not given) ?
inactive

Can you look up the reported call for `c1cc2ccc3cc2cc1CNCCOCCNCc1ccc2ccc(cc2c1)CNCCOCCNC3` for me?
inactive

What did the test return for `CC(=O)Nc1cc(C(c2ccccc2)c2ccccc2)cc(C(c2ccccc2)c2ccccc2)c1C` ?
inactive

###

Test system: T-47D breast
protocol-notes: NCI tumour cell line growth inhibition, 48 h; in the data active means GI50 below about 0.43 µM; inactive means the rest
Response enum: active, inactive

Solved entries:
compound="Nc1ncnc2c1nc(N)n2C1OC(CO)C(O)C1O (stereo not given)" assigned_category=inactive
compound=COC(=O)c1c2c(c(C)[n+]([O-])c1C)C(=O)C=C(NCc1ccc(Br)cc1)C2=O assigned_category=active
compound=C/C(=C\CCc1ccsc1)CC/C=C(\C)CCCN1CCN(CCO)CC1 assigned_category=inactive
compound="Cc1cc(C(=O)N2CCN(C)CC2)c2c(=O)n(-c3ccccc3)c(=O)n(CC(O)CN3CCN(c4ncccn4)CC3)c2n1 (stereo not given)" assigned_category=inactive

Field: outcome | Entry: `O=Cc1c[nH]c2ccc(-c3csc4ccccc34)cc12`
inactive

###

Recorded TGI values for a group of compounds are listed next.
System: OVCAR-8 ovarian
protocol-notes: NCI tumour cell line growth inhibition, 48 h
Please give a number only; it is taken to be in µM.

compound=Cc1cc(NS(=O)(=O)c2ccc(NC(=O)COc3ccc(-c4cc5ccccc5[nH]4)cc3)cc2)no1 tested_system="OVCAR-8 ovarian" obs_value=4.77
compound="C=CCN1C(=O)/C(=C/c2ccccc2)N=C1SC1OC(COC(C)=O)C(OC(C)=O)C(OC(C)=O)C1OC(C)=O (centres undefined)" tested_system="OVCAR-8 ovarian" obs_value=95.5
compound=O=C1/C(=C\c2ccc([N+](=O)[O-])cc2)CS(=O)(=O)C/C1=C/c1ccc([N+](=O)[O-])cc1 tested_system="OVCAR-8 ovarian" obs_value=0.93

Kindly consider the entry below.
Quick one: give measured TGI for `Cc1cc(O)c2c(c1)C(=O)C=C(Br)C2=O`
42.3

###

Entries and their GI50
Tested on: BT-549 breast
protocol-notes: NCI tumour cell line growth inhibition, 48 h
*1 amine or outer side, *2 acyl side, *3 side chain or, on linkers, in order; H or OH if unused. Where a SMILES comes first, the peptide text is derived from it. Bridges are numbered along the chain shown (N, C = ends). Roman numbers before positions name the chains, in order. X23 = CCCCCCCCCCCCCCC(=O)NC(CCCCN[*:2])C(=O)CN1CCCC1C(=O)[*:1]

molecule=Cc1cc(NS(=O)(=O)c2ccc(NC(=O)COc3ccc(-c4cc5ccccc5[nH]4)cc3)cc2)no1 tested_system="BT-549 breast" obs_value="2120 nM"

Note GI50 for the molecule shown: `C=C1C(=O)O[C@H]2[C@H]1CC/C(COC(=O)c1cccc3ccccc13)=C\CC[C@@]1(C)O[C@@H]21`
1050 nM

State its GI50: CS(=O)/C(C#N)=C\C=C\c1cccc(Cl)c1 (stereo not given)
2000 nM

Report measured GI50; entry is `CC(=O)Nc1cc(C(c2ccccc2)c2ccccc2)cc(C(c2ccccc2)c2ccccc2)c1C`
8200 nM

Identify the reported GI50 for the following entry. `c1cc2ccc3cc2cc1CNCCOCCNCc1ccc2ccc(cc2c1)CNCCOCCNC3`
> 100000 nM

Note down GI50 recorded for `Cc1cc(N2CCN(C)CC2)nc(N(CCNc2ccnc3cc(Cl)ccc23)Cc2ccco2)n1`
2940 nM

Consider the molecule `COc1ccc(-c2nnc(Nc3nc(O)c(C4=c5cc(OC(F)(F)F)ccc5=NC4=O)s3)o2)cc1` and give its recorded GI50.
19700 nM

Answer with the recorded GI50 of Cc1ccc(C2NC(=S)N3C(c4ccc(C)cc4)NC(=S)N23)cc1 (stereo not given) only.
10300 nM

Return value of GI50 for input `O=C(N/N=C/c1ccncc1)c1ccc(C(F)(F)F)nc1Nc1cccc(C(F)(F)F)c1` , no commentary.
613 nM

For the molecule `Cc1ccc(-n2nnc3c(sc4ccccc43)c2=O)cc1` , report GI50.
> 100000 nM

Given CCCCCCCCCCCCCCC(=O)NC(CCCCNC(=O)C1CCCN1C(=O)C(CCCCN)NC(=O)C(CCCCN)NC(=O)C(CCCCN)NC(=O)C(CCCNC(=N)N)NC(=O)C(CCCCN)NC(=O)C(N)C(C)C)C(=O)CN1CCCC1C(=O)NCC(=O)NC(Cc1ccccc1)C(=O)N1CCCC1C(=O)NC(CO)C(=O)NC(Cc1ccc(O)cc1)C(=O)NC(CCCCN)C(=O)NC(CC(C)C)C(=O)NC(CCCNC(=N)N)C(=O)N1CCCC1C(=O)NCC(N)=O (stereo not given) (I: GFPSYKLRPG-NH2 / II: H-VKRKKKP; linker I:N-II:C via X23; configuration not given here) , respond with its GI50.
23400 nM

###

System: MDA-N
protocol-notes: NCI tumour cell line growth inhibition, 48 h
Readings of TGI for the listed molecules

Answered cases to consult:
molecule=CSC1=N/C(=C\c2ccccc2)C(=O)N1CN1CCOCC1 property_name=TGI obs_value="> 100 µM"
molecule="CC(C)CC(NC=O)C(=O)NC(Cc1ccccc1)NC(=O)CNC(=O)C(C)NC(=O)OC(C)(C)C (stereo not drawn)" property_name=TGI obs_value="> 100 µM"
molecule="Clc1cc2nnn(C3CCCCO3)c2cc1Cl (stereo not drawn)" property_name=TGI obs_value="> 100 µM"

Supply reported TGI belonging to this molecule: `Cc1ccc(S(=O)(=O)Nn2c(C)cc3ccc(S(=O)(=O)Nc4ccccc4[N+](=O)[O-])cc3c2=O)cc1`
> 100 µM

Retrieve TGI measured for Cc1cn(C2CC(N=[N+]=[N-])C(CO)O2)c(=O)[nH]c1=O (stereo not drawn) and print it.
> 1000 µM

Give TGI for the following molecule: `O=CN(O)CC(=O)O.[Ni]`
> 100 µM

Provide measured TGI value, entry: `Cc1ccc2nc3sc(=O)sc3nc2c1`
32 µM

State its TGI for this molecule: `O=C(/C=C/c1cc(F)ccc1F)OCCc1ccccc1`
> 100 µM

Query TGI for `O=C(OCC(Cl)(Cl)Cl)N1CC[C@@H](C2CCCCC2)C1`
> 100 µM

Determine from records and report TGI for `Nc1nc2c(c(=O)[nH]1)N=C(COP(=O)(O)OP(=O)(O)O)CN2`
> 100 µM

Please give measured TGI of the following entry: `O=S(=O)(c1ccccc1)[C@@H]1[C@H]2C=C[C@](CS)(O2)[C@H]1S(=O)(=O)c1ccccc1`
> 100 µM

Complete the entry with TGI for `Nc1ncnc2c1ccn2CC=C(CO)CO`
> 100 µM

Provide TGI value for the following molecule: CC(=O)OCC1OC(N2C(=O)CC(N)=Nc3ccccc32)C(OC(C)=O)C(OC(C)=O)C1OC(C)=O (stereo not drawn)
> 100 µM

Answer with reported TGI of `COc1cc(CCC(=O)O)c2cc3ccccc3cc2c1O`
32.5 µM

Report measured TGI; entry is `CN1C(=O)CN=C(c2ccccc2F)c2cc(N=C=S)ccc21`
> 100 µM

Write down TGI measured for item `c1ccc(CNCCCNCCCCNCCCNCc2ccccc2)cc1`
4.13 µM

# return recorded TGI for entry [CH3][Sn]([CH3])([CH3])[O]C(=O)C(O)c1ccccc1 (stereo not drawn)
15.9 µM

State its TGI for this molecule: `c1ccc(-c2sc(-c3ccccc3)c3c2C2CCC3C2)cc1`
> 100 µM

Using the record for CC(=O)c1c2c(cc3c1CC1(C3)Cc3ccc4c(c3C1=O)CCC4)CCC2 (stereo not drawn) , state its measured TGI.
> 100 µM

Supply TGI value. Item: `N#Cc1c(N)nc2c(N=Nc3ccccc3)c(N)nn2c1Nc1ccccc1`
38.5 µM

Given the molecule `O=C(O)c1ccccc1-c1ccccc1C(=O)Nc1ccc2c(c1)Cc1ccccc1-2` , write its reported TGI.
77.1 µM

Please list TGI recorded for the molecule COc1cccc(C(C#N)NC23CC4CC(CC(C4)C2)C3)c1 (stereo not drawn)
> 100 µM

Return reported TGI. Input molecule: CC(=O)N1N=C(c2ccc3ccccc3c2O)CC1c1ccc(Cl)cc1Cl (stereo not drawn)
> 100 µM
